Recorded CH4 production for the following molecules
Test system: ruminal microorganisms
procedureSummary: Effect of sulfur reducing agents on gas, volatile fatty acid and alcohol production, timothy hay with ruminal microorganisms (Example 7)
Type: cell-based, mixed rumen microorganisms from cows
condition: 24 h; mean of CO2 or N2 without added H2
Marks after values point to notes of the source that are not given here.

1. O=S([O-])[O-].[Na+].[Na+] [SO3, Na2SO3]: 6.6^b μmol

Query: Provide value of CH4 production for this record tested with ruminal microorganisms: O=S(=O)([O-])[O-].[Na+].[Na+] [SO4, Na2SO4]
Result: 363^a μmol

Query: Provide value of CH4 production for this record tested with ruminal microorganisms: [S] [S^0]
Result: 334^a μmol

Query: Provide value of CH4 production for this record tested with ruminal microorganisms: [Na+].[Na+].[S-2] [Na2S]
Result: 335^a μmol

###

System: ruminal microorganisms
procedureSummary: Effect of sulfur reducing agents on gas, volatile fatty acid and alcohol production, timothy hay with ruminal microorganisms (Example 7)
Type: cell-based, mixed rumen microorganisms from cows
condition: 24 h; mean of CO2 or N2 without added H2
Marks after values point to notes of the source that are not given here.
reportedEndpoint: CO2 production

For orientation, consider the following solved cases.
1. O=S(=O)([O-])[O-].[Na+].[Na+] [SO4, Na2SO4]: 2298^ab μmol
2. O=S([O-])[O-].[Na+].[Na+] [SO3, Na2SO3]: 1002^b μmol
3. [Na+].[Na+].[S-2] [Na2S]: 1773^ab μmol

Now look at this entry.
Query: Look up CO2 production for this compound: [S] [S^0]
Result: 1795^ab μmol

###

Recorded Butyrate for the following compounds
Tested on: ruminal microorganisms
procedureSummary: Effect of sulfur reducing agents on gas, volatile fatty acid and alcohol production, timothy hay with ruminal microorganisms (Example 7)
Assay type: cell-based, mixed rumen microorganisms from cows
condition: 24 h; mean of CO2 or N2 without added H2
Marks after values point to notes of the source that are not given here.

For orientation, consider the following solved cases.
1. O=S([O-])[O-].[Na+].[Na+]: 152^b μmol
2. O=S(=O)([O-])[O-].[Na+].[Na+]: 198^a μmol

Query: Look up Butyrate for this compound: [S]
Result: 198^a μmol

Query: Look up Butyrate for this compound: [Na+].[Na+].[S-2]
Result: 202^a μmol

###

Recorded CO2 (% of all gases) for the following molecules
System: ruminal microorganisms
procedureSummary: Effect of sulfur reducing agents on gas, volatile fatty acid and alcohol production, timothy hay with ruminal microorganisms (Example 7)
Type: cell-based, mixed rumen microorganisms from cows
condition: 24 h; mean of CO2 or N2 without added H2
Marks after values point to notes of the source that are not given here.

For orientation, consider the following solved cases.
1) [Na+].[Na+].[S-2]: 42.9^b %
2) O=S([O-])[O-].[Na+].[Na+]: 47.9^ab %
3) O=S(=O)([O-])[O-].[Na+].[Na+]: 52.1^a %

Query: Look up CO2 (% of all gases) for this molecule: [S]
Result: 50.5^a %

###

Recorded CH4 (% of all gases) for the following compounds
Tested on: ruminal microorganisms
procedureSummary: Effect of sulfur reducing agents on gas, volatile fatty acid and alcohol production, timothy hay with ruminal microorganisms (Example 7)
Format: cell-based, mixed rumen microorganisms from cows
condition: 24 h; mean of CO2 or N2 without added H2
Marks after values point to notes of the source that are not given here.

1) [Na+].[Na+].[S-2]: 5.04^a %
2) O=S(=O)([O-])[O-].[Na+].[Na+]: 5.02^a %
3) [S]: 4.61^a %

Now look at this entry.
Query: Look up CH4 (% of all gases) for this compound: O=S([O-])[O-].[Na+].[Na+]
Result: 0.12^b %

###

Test system: ruminal microorganisms
procedureSummary: Effect of sulfur reducing agents on gas, volatile fatty acid and alcohol production, timothy hay with ruminal microorganisms (Example 7)
Assay type: cell-based, mixed rumen microorganisms from cows
condition: 24 h; mean of CO2 or N2 without added H2
Marks after values point to notes of the source that are not given here.
reportedEndpoint: CH4:H2 (molar conc. ratio)

For orientation, consider the following solved cases.
1. [S] [S^0]: 79^a
2. O=S(=O)([O-])[O-].[Na+].[Na+] [SO4, Na2SO4]: 85^a
3. O=S([O-])[O-].[Na+].[Na+] [SO3, Na2SO3]: 0.1^b

Now look at this entry.
Query: Look up CH4:H2 (molar conc. ratio) for this compound: [Na+].[Na+].[S-2] [Na2S]
Result: 69^a

###

Recorded CO2 (% of fermentation gas) for the following molecules
Tested on: ruminal microorganisms
procedureSummary: Effect of sulfur reducing agents on gas, volatile fatty acid and alcohol production, timothy hay with ruminal microorganisms (Example 7)
Assay type: cell-based, mixed rumen microorganisms from cows
condition: 24 h; mean of CO2 or N2 without added H2
Marks after values point to notes of the source that are not given here.

1. [Na+].[Na+].[S-2] [Na2S]: 85.5^b %
2. O=S([O-])[O-].[Na+].[Na+] [SO3, Na2SO3]: 92.0^a %
3. [S] [S^0]: 86.0^b %

Now look at this entry.
Query: Look up CO2 (% of fermentation gas) for this molecule: O=S(=O)([O-])[O-].[Na+].[Na+] [SO4, Na2SO4]
Result: 85.4^b %

###

Test system: ruminal microorganisms
procedureSummary: Effect of sulfur reducing agents on gas, volatile fatty acid and alcohol production, timothy hay with ruminal microorganisms (Example 7)
Type: cell-based, mixed rumen microorganisms from cows
condition: 24 h; mean of CO2 or N2 without added H2
Description: Initial in vitro experiments used timothy grass hay as substrate. For each digestion experiment, we obtained one-half liter of rumen contents from each of two ruminally-cannulated cows two to four hours after morning feeding. […] Gas samples were collected continuously in mylar balloons, and gas volumes recorded at various time points. […] Rates of gas production were determined by fitting an inverted exponential equation. […]
Marks after values point to notes of the source that are not given here.
reportedEndpoint: Propionate

For orientation, consider the following solved cases.
1) [S] [S^0]: 550^a μmol
2) O=S([O-])[O-].[Na+].[Na+] [SO3, Na2SO3]: 293^b μmol
3) O=S(=O)([O-])[O-].[Na+].[Na+] [SO4, Na2SO4]: 538^a μmol

Now look at this entry.
Query: Look up Propionate for this compound: [Na+].[Na+].[S-2] [Na2S]
Result: 541^a μmol

###

System: ruminal microorganisms
procedureSummary: Effect of sulfur reducing agents on gas, volatile fatty acid and alcohol production, timothy hay with ruminal microorganisms (Example 7)
Assay type: cell-based, mixed rumen microorganisms from cows
condition: 24 h; mean of CO2 or N2 without added H2
Marks after values point to notes of the source that are not given here.
Recorded Isovalerate for the following compounds

1) O=S(=O)([O-])[O-].[Na+].[Na+]: 13.0^ab μmol

Query: Look up Isovalerate for this compound: [S]
Result: 13.3^ab μmol

Query: Look up Isovalerate for this compound: [Na+].[Na+].[S-2]
Result: 14.7^a μmol

Query: Look up Isovalerate for this compound: O=S([O-])[O-].[Na+].[Na+]
Result: 12.3^b μmol

###

Tested on: ruminal microorganisms
procedureSummary: Effect of sulfur reducing agents on gas, volatile fatty acid and alcohol production, timothy hay with ruminal microorganisms (Example 7)
Format: cell-based, mixed rumen microorganisms from cows
condition: 24 h; mean of CO2 or N2 without added H2
Marks after values point to notes of the source that are not given here.
reportedEndpoint: Acetate:Butyrate, mole ratio

For orientation, consider the following solved cases.
1. [S] [S^0]: 7.57^a
2. [Na+].[Na+].[S-2] [Na2S]: 6.91^a
3. O=S(=O)([O-])[O-].[Na+].[Na+] [SO4, Na2SO4]: 7.00^a

Query: Look up Acetate:Butyrate, mole ratio for this compound: O=S([O-])[O-].[Na+].[Na+] [SO3, Na2SO3]
Result: 4.89^b

###

Test system: ruminal microorganisms
procedureSummary: Effect of sulfur reducing agents on gas, volatile fatty acid and alcohol production, timothy hay with ruminal microorganisms (Example 7)
Type: cell-based, mixed rumen microorganisms from cows
condition: 0.32 mmol/flask agent, timothy hay, 24 h; mean of initial gas CO2 or N2 without added H2
Marks after values point to notes of the source that are not given here.
Recorded H2 (% of all gases) for the following molecules

For orientation, consider the following solved cases.
1) [S]: 0.080^b %
2) O=S(=O)([O-])[O-].[Na+].[Na+]: 0.073^b %
3) [Na+].[Na+].[S-2]: 0.078^b %

Query: Look up H2 (% of all gases) for this molecule: O=S([O-])[O-].[Na+].[Na+]
Result: 1.39^a %

###

System: ruminal microorganisms
procedureSummary: Effect of sulfur reducing agents on gas, volatile fatty acid and alcohol production, timothy hay with ruminal microorganisms (Example 7)
Type: cell-based, mixed rumen microorganisms from cows
condition: 24 h; mean of CO2 or N2 without added H2
Marks after values point to notes of the source that are not given here.
reportedEndpoint: Total VFA

Query: Look up Total VFA for this compound: O=S(=O)([O-])[O-].[Na+].[Na+]
Result: 2162^a μmol

Query: Look up Total VFA for this compound: [S]
Result: 2287^a μmol

Query: Look up Total VFA for this compound: [Na+].[Na+].[S-2]
Result: 2190^a μmol

Query: Look up Total VFA for this compound: O=S([O-])[O-].[Na+].[Na+]
Result: 1206^b μmol

All values here come from patent US9121040B2.
